Molecular target: trypsin
Test: TRF, 0.6 ug/mL Fab on trypsin

binder	TRF signal
KB_A09 Fab (Fab, V domains shown) VH: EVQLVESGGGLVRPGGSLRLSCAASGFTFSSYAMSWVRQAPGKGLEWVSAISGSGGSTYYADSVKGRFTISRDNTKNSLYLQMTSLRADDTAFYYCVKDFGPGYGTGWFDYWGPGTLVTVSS VL: AVNWYQQLPGKAPKLLIYAAERCPRILMRCKQDSDCLAGCVCGPNGFCGTPSGVPDRFSGSIDTFSNSASLTISGLKTEDEADYYCQSYDSSHHWVFGGGTKLTVLG	21000
KB_A07 Fab (Fab, V domains shown) VH: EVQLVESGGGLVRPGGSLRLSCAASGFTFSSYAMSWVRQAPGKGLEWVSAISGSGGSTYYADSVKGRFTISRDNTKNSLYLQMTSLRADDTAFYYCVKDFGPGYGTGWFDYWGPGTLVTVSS VL: YLNWYQQKPGKAPKLLIYAAGVCPRILMRCKQDSDCLAGCVCGPNGFCGSRSGVPSRFSGSGSGTDFTLTISSLQPEDFATYYCQQGASPPYTFGQGTKVEIKR	108000
KB_A10 Fab (Fab, V domains shown) VH: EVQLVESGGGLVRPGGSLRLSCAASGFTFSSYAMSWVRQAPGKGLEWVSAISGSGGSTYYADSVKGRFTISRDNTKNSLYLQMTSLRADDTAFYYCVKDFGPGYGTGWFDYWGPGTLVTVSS VL: AVNWYQQLPGKAPKLLIYAAGGCPRILMRCKQDSDCLAGCVCGPNGFCGSNSGVPDRFSGSKSGNTASLTISGLQSEDEADYYCAAWDDSLSGVVFGGGTQLTVLG	14600
KB_A01 Fab (Fab, V domains shown) VH: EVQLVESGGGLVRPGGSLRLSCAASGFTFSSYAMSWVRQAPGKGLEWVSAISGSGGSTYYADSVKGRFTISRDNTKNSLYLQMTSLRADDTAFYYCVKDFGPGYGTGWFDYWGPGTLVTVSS VL: YLNWYQQKPGKAPKLLIYAAEVCPRILMRCKQDSDCLAGCVCGPNGFCGGTSGVPSRFSGSRSGTEFTLTISSLQPEDFATYYCQKVDDYPLTFGGGTKVEIKR	2390
KB_C08 Fab (Fab, V domains shown) VH: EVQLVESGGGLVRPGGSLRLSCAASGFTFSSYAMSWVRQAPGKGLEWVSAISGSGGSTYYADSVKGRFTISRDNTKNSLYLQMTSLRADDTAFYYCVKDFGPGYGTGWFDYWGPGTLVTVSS VL: AVNWYQQLPGKAPKLLIYAAAVCPRILMRCKQDSDCLAGCVCGPNGFCGTRSGIPERFSGSKSGTSAFLAISGLRSEDEADYYCAAWDDSLSGVVFGGGTKLTVLG	51100
